system: kochia; test: Test C postemergence; format: in vivo, Kochia scoparia; conditions: 16 g ai/ha, postemergence; 0 is no effect, 100 is complete control
Parameter: Plant response rating (0 to 100), Kochia
Could you respond with only the numeric value?

For the compound Clc1cnc(Oc2cccc(Cl)c2-n2cc(I)cn2)nc1 [Compound 181] , report Plant response rating (0 to 100), Kochia.
70

Identify the reported Plant response rating (0 to 100), Kochia for the following entry. FCc1cn(-c2ccccc2Oc2ncc(Cl)cn2)nn1 [Compound 123]
50

Tell me its Plant response rating (0 to 100), Kochia given Clc1cnc(Oc2ccccc2-n2cc(Br)nn2)nc1 [Compound 223] as the entry.
70

Output Plant response rating (0 to 100), Kochia of N#Cc1cnn(-c2c(Br)cccc2Oc2ncc(Cl)cn2)c1 [Compound 140]
70

Write down Plant response rating (0 to 100), Kochia measured for item Fc1cccc(Oc2ncc(Cl)cn2)c1-n1cc(Cl)cn1 [Compound 177]
70

---

I'd be grateful if you could share measured Plant response rating, Pigweed for these entries.
tested on: pigweed; experiment: Test A postemergence; assay type: in vivo, Amaranthus retroflexus; conditions: 125 g ai/ha, 0 to 100 scale where 0 is no effect and 100 is complete control
Lab note: write the figure by itself, no unit.

Identify the reported Plant response rating, Pigweed for the following entry. `Clc1cnc(Oc2ccccc2-n2ccc(Br)n2)nc1`
90

Identify Plant response rating, Pigweed associated with the molecule `FC(F)(F)c1ccc(Oc2ncc(Cl)cn2)c(-n2cc(Br)cn2)c1`
20

# return recorded Plant response rating, Pigweed for input `Cc1cnc(Oc2cccc(C#N)c2-n2cc(C#N)cn2)nc1`
100

Identify measured Plant response rating, Pigweed corresponding to `C=Cc1cnn(-c2ccccc2Oc2ncc(Cl)cn2)c1`
40

Specify Plant response rating, Pigweed for `CC(C)c1cnn(-c2c(C#N)cccc2Oc2ncc(Cl)cn2)c1` and stop.
80

Answer with reported Plant response rating, Pigweed of `Cc1cnc(Oc2ccccc2-n2cc(Cl)cn2)nc1`
70

Give a short answer stating reported Plant response rating, Pigweed for `Brc1cnc(Oc2ccccc2-n2ccc(Br)n2)nc1` .
80

State, in one line, measured Plant response rating, Pigweed of `N#Cc1cccc(Oc2ncc(Cl)cn2)c1-n1cc(Cl)cn1`
100

Find the measured Plant response rating, Pigweed of `N#Cc1cnn(-c2ccccc2Oc2ncc(Cl)cn2)c1` and report it.
100

Please report Plant response rating, Pigweed for the following molecule: `Clc1cnc(Oc2ccccc2-n2cnc(Br)c2)nc1`
90

In one line, give reported Plant response rating, Pigweed of the entry `Clc1cnc(Oc2ccccc2-n2cc(-c3ccccc3)cn2)nc1` .
50

Given `O=[N+]([O-])c1cccc(Oc2ncc(Cl)cn2)c1-n1cc(Br)cn1` , respond with its Plant response rating, Pigweed.
70

---

tested on: johnsongrass; experiment: Test C preemergence; assay type: in vivo, Sorghum halepense; conditions: 16 g ai/ha, preemergence; scale 0 to 100 (0 no effect, 100 complete control)
Provide the recorded Johnsongrass plant response rating for the entries that follow.

Provide Johnsongrass plant response rating value for the following compound: `FC(F)Oc1cnn(-c2c(Cl)cccc2Oc2ncc(Cl)cn2)c1`
5

Report Johnsongrass plant response rating for `NC(=S)c1cccc(Oc2ncc(Cl)cn2)c1-n1cc(Cl)cn1`
0

Give the reported value of Johnsongrass plant response rating for this record: `Cc1cnc(Oc2cccc(C#N)c2-n2cc(C(F)(F)F)cn2)nc1`
0

Give the reported value of Johnsongrass plant response rating for this record: `Fc1cnc(Oc2cccc(C(F)F)c2-n2cc(Cl)cn2)nc1`
0

Complete the entry with Johnsongrass plant response rating for `N#Cc1cnn(-c2c(C#N)cccc2Oc2ncc(Br)cn2)c1`
0

---

test system: barnyardgrass; experiment: Test A preemergence; format: in vivo, Echinochloa crus-galli; conditions: 1000 g ai/ha, 0 to 100 scale, 0 no effect, 100 complete control
Source text: […]
Consider the following compounds; for each one, report its Plant response rating, Barnyardgrass.
Keep the answer to the number alone.

Specify Plant response rating, Barnyardgrass for `Fc1cccc(Oc2ncc(Cl)cn2)c1-n1cc(C2CCCCC2)nn1` and stop.
50

Supply recorded Plant response rating, Barnyardgrass for `FCc1cn(-c2ccccc2Oc2ncc(Cl)cn2)nn1` here.
100

Determine from records and report Plant response rating, Barnyardgrass for `N#Cc1cnn(-c2ccccc2Oc2ncc(Br)cn2)n1`
0

Report Plant response rating, Barnyardgrass, nothing else, for this compound: `C=C(C)c1cn(-c2c(Br)cccc2Oc2ncc(Cl)cn2)nn1`
90

---

test system: blackgrass; experiment: Test A postemergence; type: in vivo, Alopecurus myosuroides; settings: 125 g ai/ha, 0 to 100 scale, 0 no effect, 100 complete control
Give measured Plant response rating, Blackgrass for each item. Keep answers brief.
Note: the reply should be a number with no unit written.

Consider the compound `FCc1cccc(Oc2ncc(Cl)cn2)c1-n1cc(I)cn1` . State its measured Plant response rating, Blackgrass.
70

Return Plant response rating, Blackgrass for the following compound: `N#Cc1cnn(-c2c(Oc3ncc(F)cn3)cccc2C(F)F)c1`
90

Note Plant response rating, Blackgrass for the compound shown: `FC(F)Oc1cnn(-c2c(Cl)cccc2Oc2ncc(Cl)cn2)c1`
50

Annotate the compound `O=Cc1cn(-c2ccccc2Oc2ncc(Cl)cn2)nn1` with its measured Plant response rating, Blackgrass.
0

---

system: pigweed; experiment: Test A preemergence; assay type: in vivo, Amaranthus retroflexus; conditions: 500 g ai/ha, 0 to 100 scale, 0 no effect, 100 complete control, approx. 10 days
From the text: […]
For each of the compounds below, state its Pigweed plant response rating.
Form: value (number only, do not type unit).

Retrieve Pigweed plant response rating on pigweed; query `CC(C)c1cnn(-c2c(C#N)cccc2Oc2ncc(Cl)cn2)c1`
100

Check pigweed data and give Pigweed plant response rating for `Cc1cccc(Oc2ncc(Cl)cn2)c1-n1cc(Br)cn1` .
100

Would you please give the reported Pigweed plant response rating of `Clc1cnc(Oc2cc(Cl)ccc2-n2cccn2)nc1` with pigweed?
0

---

tested on: giant foxtail; assay: Test A postemergence; type: in vivo, Setaria faberii; conditions: 125 g ai/ha, 0 to 100 scale where 0 is no effect and 100 is complete control
Parameter: Plant response rating, Foxtail, Giant
Give a plain numeric answer without units written out.

Report Plant response rating, Foxtail, Giant, nothing else, for this compound: `N#Cc1cccc(Oc2ncc(C(F)(F)F)cn2)c1-n1cc(Br)cn1`
10

Quick one: give measured Plant response rating, Foxtail, Giant for `C=Cc1cnn(-c2ccccc2Oc2ncc(Cl)cn2)c1`
40

Answer with reported Plant response rating, Foxtail, Giant of `Cc1cccc(Oc2ncc(Br)cn2)c1-n1cc(Br)cn1`
70

Identify measured Plant response rating, Foxtail, Giant associated with `N#Cc1cccc(Oc2ncc(Cl)cn2)c1-n1cc(Cl)cn1`
90

Identify measured Plant response rating, Foxtail, Giant associated with `Clc1cnc(Oc2ccccc2-n2ccnc2)nc1`
0

# return recorded Plant response rating, Foxtail, Giant for entry `Fc1cnc(Oc2ccccc2-n2cc(C(F)(F)F)cn2)nc1`
80

Give recorded Plant response rating, Foxtail, Giant. `Brc1cnc(Oc2ccccc2-n2ccc(Br)n2)nc1`
0

Read the entry `FC(F)(F)c1cnc(Oc2ccccc2-n2ccc(C(F)(F)F)n2)nc1` and write its reported Plant response rating, Foxtail, Giant.
0

Determine from records and report Plant response rating, Foxtail, Giant for `Cc1cnc(Oc2ccccc2-n2cc(Cl)cn2)nc1`
10

Give Plant response rating, Foxtail, Giant for `Cc1cnc(Oc2cccc(C#N)c2-n2cc(Br)cn2)nc1`
60

Look up and report measured Plant response rating, Foxtail, Giant for this entry: `CC=Cc1cnn(-c2ccccc2Oc2ncc(Cl)cn2)c1`
0

Consider the compound `FC(F)(F)c1ccc(Oc2ncc(Cl)cn2)c(-n2cc(Br)cn2)c1` and give its recorded Plant response rating, Foxtail, Giant.
0

---

test system: Brazilian crabgrass; assay: Test E preemergence; assay type: in vivo, Digitaria horizontalis; settings: 31 g ai/ha, scale 0 to 100 (0 no effect, 100 complete control)
Can you tell me Crabgrass, Brazil plant response rating for the items I'm about to list?
Answer field: number only, no words.

Please list Crabgrass, Brazil plant response rating recorded for the compound N#Cc1cccc(Oc2ncc(Cl)cn2)c1-n1cc(Br)cn1 [Compound 52]
90

Identify measured Crabgrass, Brazil plant response rating corresponding to N#Cc1cccc(Oc2ncc(Cl)cn2)c1-n1cc(Cl)cn1 [Compound 72]
98

Find the measured Crabgrass, Brazil plant response rating of Cc1cnc(Oc2cccc(C#N)c2-n2cc(C#N)cn2)nc1 [Compound 90] and report it.
20

Provide only the value of recorded Crabgrass, Brazil plant response rating for NC(=S)c1cccc(Oc2ncc(Cl)cn2)c1-n1cc(Cl)cn1 [Compound 292]
40

---

tested on: pigweed; experiment: Test C preemergence; format: in vivo, Amaranthus retroflexus; conditions: 125 g ai/ha, preemergence; scale 0 (no effect) to 100 (complete control)
Provide the recorded Pigweed plant response rating for the entries that follow.
Lab note: record just the number, no unit beside it.

Quote Pigweed plant response rating with test system pigweed for `N#Cc1cnn(-c2c(C#N)cccc2Oc2ncc(Cl)cn2)c1`
100

Enter Pigweed plant response rating (test system pigweed) for `Fc1cnc(Oc2cccc(C(F)F)c2-n2cc(Cl)cn2)nc1`
100

Provide the reported Pigweed plant response rating (system: pigweed) for `N#Cc1cnn(-c2c(Oc3ncc(F)cn3)cccc2C(F)F)c1`
65

Please report Pigweed plant response rating with pigweed for item `Cc1cnc(Oc2cccc(C#N)c2-n2cc(C(F)(F)F)cn2)nc1` .
100

Numbers sourced from patent US9695155B2.
